- EXPERIMENT_SUMMARY: clinical
- CONDITION_DETAILS: human, plasma, oral, 36 mg, Cmax, 36 mg t.i.w., cycle 1 Last Wednesday, mean

{"COMPOUND_STRING": "C=CC(=O)N1CC[C@H](n2nc(C#Cc3cc(OC)cc(OC)c3)c3c(N)ncnc32)C1", "UNITS_SYMBOL": "ng/mL", "Cmax": 736}

###

- EXPERIMENT_SUMMARY: clinical
- CONDITION_DETAILS: human, plasma, oral, 8 mg, Cmax, 8 mg q.d., cycle 1 Day 21, mean
MEASURED_QUANTITY: Cmax (ng/mL)

{"COMPOUND_STRING": "C=CC(=O)N1CC[C@H](n2nc(C#Cc3cc(OC)cc(OC)c3)c3c(N)ncnc32)C1", "DATA_VALUE": 98.2}
